Below: a set of entries, each annotated with reported growth at 10 µM.
- Test system: SR
- EXPERIMENTAL_PROTOCOL: Cytotoxicity against human SR cells assessed as cell growth at 10 uM after 48 hrs by SRB assay relative to control
- Type: functional
- CONDITION_SUMMARY: read-out: Activity
Please respond with the number in % and leave the unit unwritten.

Completed entries (count: 10):
[
  {
    "SMILES_TEXT": "COc1ccc(Sc2cc3c(c4nsnc24)C(=O)c2ccccc2C3=O)cc1",
    "SYSTEM_UNDER_TEST": "SR",
    "growth at 10 µM [%]": 102
  },
  {
    "SMILES_TEXT": "CC(C)Sc1cc2c(c3nsnc13)C(=O)c1ccccc1C2=O",
    "SYSTEM_UNDER_TEST": "SR",
    "growth at 10 µM [%]": -48
  },
  {
    "SMILES_TEXT": "COc1cccc(Sc2cc3c(c4nsnc24)C(=O)c2ccccc2C3=O)c1",
    "SYSTEM_UNDER_TEST": "SR",
    "growth at 10 µM [%]": 36.1
  },
  {
    "SMILES_TEXT": "O=C1c2ccccc2C(=O)c2c1cc(Sc1ccc(F)cc1F)c1nsnc21",
    "SYSTEM_UNDER_TEST": "SR",
    "growth at 10 µM [%]": 0.2
  },
  {
    "SMILES_TEXT": "O=C1c2ccccc2C(=O)c2c1cc(SCc1ccc(Cl)cc1)c1nsnc21",
    "SYSTEM_UNDER_TEST": "SR",
    "growth at 10 µM [%]": 63.7
  },
  {
    "SMILES_TEXT": "CSc1ccc(Sc2cc3c(c4nsnc24)C(=O)c2ccccc2C3=O)cc1",
    "SYSTEM_UNDER_TEST": "SR",
    "growth at 10 µM [%]": 96.3
  },
  {
    "SMILES_TEXT": "Cc1cc(C)cc(Sc2cc3c(c4nsnc24)C(=O)c2ccccc2C3=O)c1",
    "SYSTEM_UNDER_TEST": "SR",
    "growth at 10 µM [%]": 78.4
  },
  {
    "SMILES_TEXT": "O=C1c2ccccc2C(=O)c2c1ccc1nsnc21",
    "SYSTEM_UNDER_TEST": "SR",
    "growth at 10 µM [%]": 4.96
  },
  {
    "SMILES_TEXT": "Cc1cccc(C)c1Sc1cc2c(c3nsnc13)C(=O)c1ccccc1C2=O",
    "SYSTEM_UNDER_TEST": "SR",
    "growth at 10 µM [%]": 35.5
  },
  {
    "SMILES_TEXT": "O=C1c2ccccc2C(=O)c2c1cc(Sc1ccc(Cl)cc1)c1nsnc21",
    "SYSTEM_UNDER_TEST": "SR",
    "growth at 10 µM [%]": 111
  }
]

With those in mind, consider the next compound.
Enquiry: Param item = `O=C1c2ccccc2C(=O)c2c1cc(SCc1ccccc1)c1nsnc21` ; retrieve measured growth at 10 µM.
Return: 1.25

----------
Below: a set of entries, each annotated with reported TGI.
- System: UO-31
- EXPERIMENTAL_PROTOCOL: Cytotoxicity against human UO31 cells after 48 hrs by SRB assay
- Type: functional
- CONDITION_SUMMARY: UO-31, 48 h

Completed entries (count: 4):
[
  {
    "SMILES_TEXT": "O=C1c2ccccc2C(=O)c2c1cc(Sc1ccccc1Br)c1nsnc21",
    "TGI": "> 50 µM"
  },
  {
    "SMILES_TEXT": "O=C1c2ccccc2C(=O)c2c1cc(SCc1ccccc1)c1nsnc21",
    "TGI": "18.5 µM"
  },
  {
    "SMILES_TEXT": "CC(C)Sc1cc2c(c3nsnc13)C(=O)c1ccccc1C2=O",
    "TGI": "3.56 µM"
  },
  {
    "SMILES_TEXT": "O=C1c2ccccc2C(=O)c2c1cc(Sc1cccc(Cl)c1)c1nsnc21",
    "TGI": "4.16 µM"
  }
]

With those in mind, consider the next molecule.
Enquiry: Param item = `O=C1c2ccccc2C(=O)c2c1cc(Sc1ccc(F)cc1F)c1nsnc21` ; retrieve measured TGI.
Return: 15 µM

----------
Below: a set of entries, each annotated with reported GI50.
- System: CCRF-CEM
- EXPERIMENTAL_PROTOCOL: Cytotoxicity against human CCRF-CEM cells after 48 hrs by SRB assay
- Format: functional
Please respond with the number in µM and leave the unit unwritten.

Enquiry: Give the reported GI50 for `O=C1c2ccccc2C(=O)c2c1cc(Sc1cccc(Cl)c1)c1nsnc21` (system: CCRF-CEM).
Return: 0.56

----------
- Tested on: 786-0
- EXPERIMENTAL_PROTOCOL: Cytotoxicity against human 786-0 cells assessed as cell growth at 10 uM after 48 hrs by SRB assay relative to control
- Format: functional
- CONDITION_SUMMARY: 786-0, 48 h, read-out: Activity
QUANTITY_MEASURED: growth at 10 µM

Completed entries (count: 2):
[
  {
    "SMILES_TEXT": "Cc1cc(C)cc(Sc2cc3c(c4nsnc24)C(=O)c2ccccc2C3=O)c1",
    "VALUE_REPORTED": "98.2%"
  },
  {
    "SMILES_TEXT": "O=C1c2ccccc2C(=O)c2c1cc(Sc1cccc(Cl)c1)c1nsnc21",
    "VALUE_REPORTED": "-2.06%"
  }
]

Enquiry: Give the reported growth at 10 µM for `CSc1ccc(Sc2cc3c(c4nsnc24)C(=O)c2ccccc2C3=O)cc1` (system: 786-0).
Return: 110%

Enquiry: Give the reported growth at 10 µM for `O=C1c2ccccc2C(=O)c2c1cc(SCc1ccccc1)c1nsnc21` (system: 786-0).
Return: 92.6%

Enquiry: Give the reported growth at 10 µM for `O=C1c2ccccc2C(=O)c2c1cc(Cl)c1nsnc21` (system: 786-0).
Return: 102%

Enquiry: Give the reported growth at 10 µM for `O=C1c2ccccc2C(=O)c2c1cc(Sc1ccc(F)cc1F)c1nsnc21` (system: 786-0).
Return: 3.74%

Enquiry: Give the reported growth at 10 µM for `Cc1ccc(Sc2cc3c(c4nsnc24)C(=O)c2ccccc2C3=O)c(C)c1` (system: 786-0).
Return: 105%

----------
Below: a set of entries, each annotated with reported LC50.
- Test system: K562
- EXPERIMENTAL_PROTOCOL: Cytotoxicity against human K562 cells after 48 hrs by SRB assay
- Format: functional
- CONDITION_SUMMARY: K562, 48 h

Completed entries (count: 4):
[
  {
    "SMILES_TEXT": "O=C1c2ccccc2C(=O)c2c1cc(Sc1ccccc1Br)c1nsnc21",
    "LC50": "> 50 µM"
  },
  {
    "SMILES_TEXT": "O=C1c2ccccc2C(=O)c2c1cc(SCc1ccccc1)c1nsnc21",
    "LC50": "> 50 µM"
  },
  {
    "SMILES_TEXT": "O=C1c2ccccc2C(=O)c2c1cc(Sc1cccc(Cl)c1)c1nsnc21",
    "LC50": "> 100 µM"
  },
  {
    "SMILES_TEXT": "CC(C)Sc1cc2c(c3nsnc13)C(=O)c1ccccc1C2=O",
    "LC50": "14.3 µM"
  }
]

With those in mind, consider the next molecule.
Enquiry: Param item = `O=C1c2ccccc2C(=O)c2c1cc(Sc1ccc(F)cc1F)c1nsnc21` ; retrieve measured LC50.
Return: 68.4 µM

----------
- Tested on: PC-3
- EXPERIMENTAL_PROTOCOL: Cytotoxicity against human PC3 cells assessed as cell growth at 10 uM after 48 hrs by SRB assay relative to control
- Type: functional
- CONDITION_SUMMARY: PC-3, 48 h, read-out: Activity
Mark Met for growth at 10 µM under 80%, Not met if at or over.

Record excerpt, results attached:
[
  {
    "SMILES_TEXT": "COc1cccc(Sc2cc3c(c4nsnc24)C(=O)c2ccccc2C3=O)c1",
    "GROUP_LABEL": "Met"
  },
  {
    "SMILES_TEXT": "Cc1cccc(C)c1Sc1cc2c(c3nsnc13)C(=O)c1ccccc1C2=O",
    "GROUP_LABEL": "Met"
  },
  {
    "SMILES_TEXT": "O=C1c2ccccc2C(=O)c2c1cc(Sc1ccccc1Br)c1nsnc21",
    "GROUP_LABEL": "Met"
  },
  {
    "SMILES_TEXT": "Cc1ccccc1Sc1cc2c(c3nsnc13)C(=O)c1ccccc1C2=O",
    "GROUP_LABEL": "Met"
  },
  {
    "SMILES_TEXT": "O=C1c2ccccc2C(=O)c2c1cc(Sc1ccccc1)c1nsnc21",
    "GROUP_LABEL": "Not met"
  }
]

Enquiry: Input `O=C1c2ccccc2C(=O)c2c1cc(SCc1ccc(Cl)cc1)c1nsnc21` ; condition: growth at 10 µM strictly below 80%. Does it hold?
Return: Not met

Enquiry: Input `O=C1c2ccccc2C(=O)c2c1cc(SCc1ccccc1)c1nsnc21` ; condition: growth at 10 µM strictly below 80%. Does it hold?
Return: Met

Enquiry: Input `Cc1ccc(Sc2cc3c(c4nsnc24)C(=O)c2ccccc2C3=O)c(C)c1` ; condition: growth at 10 µM strictly below 80%. Does it hold?
Return: Met

Cited source for all entries: ChEMBL document CHEMBL3621107
